Test system: Jurkat
test-description: Cytotoxicity against human Jurkat cells assessed as inhibition of cell proliferation after 96 hrs by MTT assay
Type: functional, cell-based
Recorded IC50 for the following compounds

chem-smiles	unit-abbreviation	IC50
COc1cc(C)c(-c2csc(NC(=O)/C=C/c3ccc(N4CCOCC4)cc3)n2)c(C)c1	nM	1240
CC(=O)O[C@H]1C(=O)[C@@]2(C)[C@H]([C@H](OC(=O)c3ccccc3)[C@]3(O)C[C@H](OC(=O)[C@H](O)[C@@H](NC(=O)c4ccccc4)c4ccccc4)C(C)=C1C3(C)C)[C@]1(OC(C)=O)CO[C@@H]1C[C@@H]2O	nM	690
Cc1cc(C)c(-c2csc(NC(=O)/C=C/c3ccc(C(C)(C)C)cc3)n2)c(C)c1	nM	35
